- Tested on: completely removed guinea-pig tracheas
- assayMethodText: Constrictive action of histamine di-hydrochloride on completely removed guinea-pig tracheas (in vitro)
- Format: cell-based
- testConditions: concentration 200 x 10^-6 g/ml; histamine di-hydrochloride 5.10^-6 g/ml
Catalogue of % inhibition values
# output: bare number, implied unit %

Cn1c(=O)c2c(ncn2CC2SCC[S+]2[O-])n(C)c1=O (stereo not drawn) [COMPOUND 3]
-21.5

Next, consider the following compound.
So what's the measured % inhibition for this one? Cn1c(=O)c2c(ncn2CC2SCC[S+]2[O-])n(C)c1=O (stereo not drawn) [COMPOUND 4]
-12.5

----------
- Test system: completely removed guinea-pig tracheas
- assayMethodText: Constrictive action of histamine di-hydrochloride on completely removed guinea-pig tracheas (in vitro)
- Format: cell-based
- testConditions: concentration 200 x 10^-6 g/ml; histamine di-hydrochloride 5.10^-6 g/ml
endpointLabel: % inhibition (%)
Lab book: enter the figure in %, no units written.

Consider the following illustrative entries.
Cn1c(=O)c2c(ncn2CC2SCCS2)n(C)c1=O [COMPOUND 1]
-62.5
Cn1c(=O)c2[nH]cnc2n(C)c1=O [AMINOPHYLLINE, aminophylline]
-46.15
Cn1c(=O)c2c(ncn2CC2OCCO2)n(C)c1=O [DOXOPHYLLINE, reference compound]
-54

Kindly consider the entry below.
Entry Cn1c(=O)c2c(ncn2CC2SCCCS2)n(C)c1=O [COMPOUND 2] , system completely removed guinea-pig tracheas: what % inhibition was measured?
-18.5
